Molecular target: T1, NHERF3_1, Q5T2W1
T1 sequence (Q5T2W1 4-100, limits assumed, looked up): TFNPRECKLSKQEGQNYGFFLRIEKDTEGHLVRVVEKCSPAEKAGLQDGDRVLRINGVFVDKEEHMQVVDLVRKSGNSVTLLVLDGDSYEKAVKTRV
Test: holdup assay
Design: key: below the threshold = too weak to quantify, mostly under pKd 3.1 to 4
Details: plain residues with an end cap or a label only (N-terminal biotin on a linker: ado-ado)
Decision: pKd >= 5 yields fulfilled, all other cases yield not fulfilled.

Hi team, for SKQFDKNAYV [CLDN10, P78369] , is the recorded pKd at or above 5? not fulfilled

Hi team, for THREVKFTSL [CD46, P15529] , is the recorded pKd at or above 5? fulfilled

Hi team, for NSTHNLKDYV [CLDN20, P56880] , is the recorded pKd at or above 5? not fulfilled

Hi team, for FHSIKQSTAV [CRHR1, P34998] , is the recorded pKd at or above 5? fulfilled

Hi team, for GDSSRKEYFI [GYPC, P04921] , is the recorded pKd at or above 5? not fulfilled

Hi team, for LLQEEWETVM [PTH1R, Q03431] , is the recorded pKd at or above 5? fulfilled

Hi team, for TKDKVQETQI [LRRC4, Q9HBW1] , is the recorded pKd at or above 5? fulfilled

Hi team, for THHRKIHTRV [ZNF599, Q96NL3] , is the recorded pKd at or above 5? not fulfilled

Hi team, for VISSDDLTEL [CAPN6, Q9Y6Q1] , is the recorded pKd at or above 5? not fulfilled

Hi team, for GNDPDRGTSI [GRID2, O43424] , is the recorded pKd at or above 5? not fulfilled

Hi team, for RSPVATATSC [DUSP5, Q16690] , is the recorded pKd at or above 5? not fulfilled
